Hello, the source for this data is patent US9243281B2, in case you need it.

target: p70 (NAMPT) (Homo sapiens, UniProt P43490); construct: endogenous in cells; host or cells: H2122 lung cancer cells; experiment: binding competition for photo-crosslinking of P7C3-S326 to p70 in H2122 cells; conditions: 0.3 μM P7C3-S326 plus 5 μM competitor, p70 band intensity, P7C3-S326 alone compared with plus competitor, vehicle 1.0
Sequence (P43490 whole entry): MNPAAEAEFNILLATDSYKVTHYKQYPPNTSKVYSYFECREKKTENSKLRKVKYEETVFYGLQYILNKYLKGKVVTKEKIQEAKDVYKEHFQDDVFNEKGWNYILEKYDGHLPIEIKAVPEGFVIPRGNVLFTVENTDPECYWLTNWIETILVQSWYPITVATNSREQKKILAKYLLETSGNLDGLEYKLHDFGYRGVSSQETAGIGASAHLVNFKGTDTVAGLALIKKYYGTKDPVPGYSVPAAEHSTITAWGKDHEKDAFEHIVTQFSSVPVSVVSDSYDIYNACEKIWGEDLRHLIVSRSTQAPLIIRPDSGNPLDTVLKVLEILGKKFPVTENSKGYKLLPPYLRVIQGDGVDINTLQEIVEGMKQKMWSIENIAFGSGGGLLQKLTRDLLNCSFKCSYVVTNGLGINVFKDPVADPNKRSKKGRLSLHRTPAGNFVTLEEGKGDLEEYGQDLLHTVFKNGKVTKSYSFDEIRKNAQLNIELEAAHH
Readings of Binding competition for the listed compounds
Please state the value as a number alone, without comment.

Guide cases for Binding competition, answers given:
N#Cc1ccc2[nH]c3ccc(Br)cc3c2c1 [S216]	4.4
CN1CCN2c3ncccc3Cc3ccccc3C2C1 (stereo not drawn) [S126, Remeron, reference compound]	1.3
COCC(O)Cn1c2ccc(Br)cc2c2cc(Br)ccc21 (stereo not drawn) [S19]	2.9
COc1cccc(NCC(O)Cn2c3ccc(C#N)cc3c3cc(C#N)ccc32)c1 (stereo not drawn) [S65]	3.3
O=C(O)Cn1c2ccc(Br)cc2c2cc(Br)ccc21 [S165]	1.3

Next item in the queue.
stdin: Which Binding competition value is on record for OC(CNc1ccccc1)Cn1c2ccc(C3CC3)cc2c2cc(C3CC3)ccc21 (stereo not drawn) [S62] ?
stdout: 1.2
